biological target: T1, full-length human Tau (Tau441; 2N4R), recombinant (human, UniProt P10636 1-758); assay: SPR Biacore
T1 construct: made in E. coli, His6-Smt3 tag removed; biotinylated through amines for Octet and phage work; also called r-Tau; recombinant Tau
T1 sequence (P10636 other isoform, or with tags, fused parts or gaps limits assumed): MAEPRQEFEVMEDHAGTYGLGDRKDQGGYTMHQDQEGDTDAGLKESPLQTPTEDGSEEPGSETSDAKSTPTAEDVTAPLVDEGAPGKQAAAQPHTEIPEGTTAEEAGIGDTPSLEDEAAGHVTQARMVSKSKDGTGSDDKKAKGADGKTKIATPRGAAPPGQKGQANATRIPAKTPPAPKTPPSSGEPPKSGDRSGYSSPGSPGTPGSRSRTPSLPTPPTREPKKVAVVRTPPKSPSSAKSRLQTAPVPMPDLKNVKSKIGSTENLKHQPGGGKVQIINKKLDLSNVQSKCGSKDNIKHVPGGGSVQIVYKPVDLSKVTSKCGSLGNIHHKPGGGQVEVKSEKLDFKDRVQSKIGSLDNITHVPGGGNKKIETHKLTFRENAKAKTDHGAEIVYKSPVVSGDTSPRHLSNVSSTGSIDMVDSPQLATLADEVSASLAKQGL
fold weaker binding than chimeric 1C7 values for the binders below.

[Q] Using known records, supply fold weaker binding than chimeric 1C7 for hu1C7.v3 (S75A) (antibody, V domains shown) VH: EVQLLESGGGLVQPGGSLRLSCAASGFTFSSYGMSWVRQAPGKGLEWVSSISGDGGSYIHYADSVKGRFTISRDNAKNTLYLQMNSLRAEDTAVYYCARLPYWGQGTLVTVSS VL: DIVMTQSPDSLAVSLGERATINCKSSQSLLNSGNQKNYLTWYQQKPGQPPKLLIYWASTRESGVPDRFSGSGSGTDFTLTISSLQAEDVAVYYCQQYNSYPLTFGQGTKVEIKR
[A] ~2 fold

[Q] State, in one line, measured fold weaker binding than chimeric 1C7 of hu1C7.v2 (S49A) (antibody, V domains shown) VH: EVQLLESGGGLVQPGGSLRLSCAASGFTFSSYGMSWVRQAPGKGLEWVASISGDGGSYIHYADSVKGRFTISRDNSKNTLYLQMNSLRAEDTAVYYCARLPYWGQGTLVTVSS VL: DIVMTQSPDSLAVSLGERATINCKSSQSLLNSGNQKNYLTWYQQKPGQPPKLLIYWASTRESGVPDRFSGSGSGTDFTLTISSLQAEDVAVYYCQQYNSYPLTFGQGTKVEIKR
[A] ~2 fold

[Q] Quick one: give measured fold weaker binding than chimeric 1C7 for hu1C7.v4 (S49A, S75A) (antibody, V domains shown) VH: EVQLLESGGGLVQPGGSLRLSCAASGFTFSSYGMSWVRQAPGKGLEWVASISGDGGSYIHYADSVKGRFTISRDNAKNTLYLQMNSLRAEDTAVYYCARLPYWGQGTLVTVSS VL: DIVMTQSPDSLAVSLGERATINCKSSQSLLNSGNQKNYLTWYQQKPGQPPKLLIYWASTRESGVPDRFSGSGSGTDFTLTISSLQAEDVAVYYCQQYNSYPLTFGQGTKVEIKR
[A] ~2 fold
